Numbers sourced from the RNAGym collection of RNA variant scans (doi:10.1126/science.aae0568).

B1: tRNA (parent)
chain: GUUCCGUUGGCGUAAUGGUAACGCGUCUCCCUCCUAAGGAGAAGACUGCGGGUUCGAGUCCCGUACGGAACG

# Variants of: B1
# METHOD NOTES: yeast fitness relative to wild type (ratio to wild type); higher = fitter; tRNA-Arg(CCU), competitive growth, 37 C, YPD
This sample holds only a part of the variants without activity.
Items are presented alongside their recorded yeast fitness.
Please state the value as a number alone, without comment.

Solved entries (count: 8):
     variant_notation  test_result
0  U2C G44A C46U A69C        0.784
1           U16G C27G        0.639
2           G38A U59G        0.705
3       C4U A36C G63A        0.536
4      G23A A57C C62G        0.625
5      G25A G48C C62A        0.611
6           A42C C66U        0.816
7           A37U A57G        0.648

Shift focus to the following entry.
Using the record for U2A G67U , report its yeast fitness.
0.824
